This collection of values is drawn from patent US20240116985A1.

System under test: full-length beta-Catenin (Uniprot ID P35222) (Homo sapiens (Human)) (UniProt P35222)
Sequence (P35222 2-781 limits assumed): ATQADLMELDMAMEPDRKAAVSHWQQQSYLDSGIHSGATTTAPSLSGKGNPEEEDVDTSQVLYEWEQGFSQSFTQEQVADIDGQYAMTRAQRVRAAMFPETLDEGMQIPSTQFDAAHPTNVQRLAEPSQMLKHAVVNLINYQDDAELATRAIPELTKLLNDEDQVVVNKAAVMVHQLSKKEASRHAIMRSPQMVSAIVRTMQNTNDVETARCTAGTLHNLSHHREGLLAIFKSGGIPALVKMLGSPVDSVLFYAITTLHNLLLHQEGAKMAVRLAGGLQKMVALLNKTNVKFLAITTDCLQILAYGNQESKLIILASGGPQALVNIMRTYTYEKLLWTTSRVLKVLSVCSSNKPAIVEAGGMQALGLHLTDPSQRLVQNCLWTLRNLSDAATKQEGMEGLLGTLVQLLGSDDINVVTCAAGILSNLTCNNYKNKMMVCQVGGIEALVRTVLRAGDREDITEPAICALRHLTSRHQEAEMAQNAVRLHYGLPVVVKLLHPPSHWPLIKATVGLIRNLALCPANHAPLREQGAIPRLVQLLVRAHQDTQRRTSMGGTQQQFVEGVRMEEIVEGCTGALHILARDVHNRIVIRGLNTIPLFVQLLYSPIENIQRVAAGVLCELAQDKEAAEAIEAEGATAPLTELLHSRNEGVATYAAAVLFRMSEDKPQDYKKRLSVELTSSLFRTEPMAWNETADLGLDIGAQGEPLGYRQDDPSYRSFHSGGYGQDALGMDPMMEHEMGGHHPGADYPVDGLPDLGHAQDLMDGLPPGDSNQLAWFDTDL
Run description: fluorescence polarization competition; 10 nM full-length beta-catenin + 10 nM 5FAM-TCF4(10-53) probe; peptide titrated 10 uM to 5 nM
Starred links: 1 amine or outer side, 2 acyl side, 3 side chain; linkers in the order of their positions; H or OH if unused. Positions of bridges follow the written chain, without caps; N, C: chain ends. Non-standard residues stand in square brackets, D forms with d. Primed or numbered codes have the meaning given here. PyrS2″ = (S)-3-amino-1-((pent-4-en-1-yloxy)carbonyl)pyrrolidine-3-carboxylic acid (stapling residue), C=CCCCOC(=O)N1CC[C@@](N[*:1])(C(=O)[*:2])C1; B5(4) = 2,2-bis(4-pentenyl)glycine = 2-amino-2-(pent-4-en-1-yl)hept-6-enoic acid (stitching residue), C=CCCCC(CCCC=C)(N[*:1])C(=O)[*:2]; B5(31) = 2-amino-2-(pent-4-en-1-yl)hept-6-enoic acid (bis-pentenylglycine, stitching residue), C=CCCCC(CCCC=C)(N[*:1])C(=O)[*:2]; B5(3) = 2,2-bis(4-pentenyl)glycine (stitching residue), C=CCCCC(CCCC=C)(N[*:1])C(=O)[*:2]; Phe(3-COOH) = N[C@@H](Cc1cccc(C(=O)O)c1)C(=O)O; Bta = N[C@@H](Cc1csc2ccccc12)C(=O)O; Lys(iPr) = CC(C)NCCCC[C@H](N)C(=O)O; αAllylPro = C=CC[C@@]1(C(=O)O)CCCN1; tBuAla = CC(C)(C)C[C@H](N)C(=O)O; 3Thi = N[C@@H](Cc1ccsc1)C(=O)O; Cha = N[C@@H](CC1CCCCC1)C(=O)O; hSer = N[C@@H](CCO)C(=O)O; Aib = CC(C)(N)C(=O)O
Assay endpoint: IC50 (nM)
# number only, unit nM dropped from output

Using the record for Ac-[αAllylPro][hSer][Cha][B5(4)]DQ[Lys(iPr)]AFL[PyrS2″]F[Bta]Q-NH2 (staple 1-4, 4-11) [I-2353] , report its IC50.
2760

Same again, this time with Ac-[αAllylPro]D[tBuAla][B5(3)]NT[Aib]AFN[PyrS2″][3Thi][Bta]Q-NH2 (staple 1-4, 4-11) [I-2338]
63

Consider next the binder Ac-[αAllylPro]D[tBuAla][B5(3)]N[Phe(3-COOH)]AAFT[PyrS2″][3Thi][Bta]Q-NH2 (staple 1-4, 4-11) [I-2336] in the same way.
19

Another binder to look at: Ac-[αAllylPro]N[Cha][B5(31)]DK[Lys(iPr)]AFL[PyrS2″]F[Bta]Q-NH2 (staple 1-4, 4-11) [I-2347]
5630
